# System: subcutaneously implanted H69 human lung cancer
# assayRemarks: Ex vivo biodistribution by fiber-optic spectrofluorimetry (FOS) in tissues of mice bearing H69 tumors
# experimentalContext: ex vivo, 24 hours after i.v. administration, FOS

compoundSmiles: C[C@@H](O)[C@@H]1NC(=O)[C@H](CCCCN)NC(=O)[C@@H](Cc2c[nH]c3ccccc23)NC(=O)[C@H](Cc2c[nH]c3ccccc23)NC(=O)[C@H](Cc2ccccc2)NC(=O)CN(C(=O)[C@@H](Cc2ccccc2)NC(=O)CCNC(=S)Nc2ccc3c(c2)C(=O)OC32c3ccc(O)cc3Oc3cc(O)ccc32)CCSSCCN(CC(N)=O)C(=O)[C@H](Cc2ccccc2)NC1=O
Fluorescence intensity (a.u.), Skin: 120

compoundSmiles: C[C@@H](O)[C@@H]1NC(=O)[C@H](CCCCN)NC(=O)[C@@H](Cc2c[nH]c3ccccc23)NC(=O)[C@H](Cc2c[nH]c3ccccc23)NC(=O)[C@H](Cc2ccccc2)NC(=O)CN(C(=O)CCCNC(=O)c2ccc3c(c2)C(=O)OC32c3ccc(O)cc3Oc3cc(O)ccc32)CCSSCCN(CC(N)=O)C(=O)[C@H](Cc2ccccc2)NC1=O
Fluorescence intensity (a.u.), Skin: 90

compoundSmiles: C[C@@H](O)[C@@H]1NC(=O)[C@H](CCCCN)NC(=O)[C@@H](Cc2c[nH]c3ccccc23)NC(=O)[C@H](Cc2c[nH]c3ccccc23)NC(=O)[C@H](Cc2ccccc2)NC(=O)CN(C(=O)[C@@H](Cc2ccccc2)NC(=O)CCNC(=O)c2ccc3c(c2)C(=O)OC32c3ccc(O)cc3Oc3cc(O)ccc32)CCSSCCN(CC(N)=O)C(=O)[C@H](Cc2ccccc2)NC1=O
Fluorescence intensity (a.u.), Skin: 120

compoundSmiles: C[C@@H](O)[C@@H]1NC(=O)[C@H](CCCCN)NC(=O)[C@@H](Cc2c[nH]c3ccccc23)NC(=O)[C@H](Cc2c[nH]c3ccccc23)NC(=O)[C@H](Cc2ccccc2)NC(=O)[C@@H](NC(=O)[C@@H](Cc2ccccc2)NC(=O)CCCNC(=S)Nc2ccc3c(c2)C(=O)OC32c3ccc(O)cc3Oc3cc(O)ccc32)CSSCCN(CC(N)=O)C(=O)[C@H](Cc2ccccc2)NC1=O
Fluorescence intensity (a.u.), Skin: 65
